Test: Plasma pharmacokinetics after single and repeated oral doses
Format: in vivo, healthy adult participants (human)
Settings: human, plasma, oral, 15 mg, Part 2 Day 1, 15 mg BID, fasted; read-out: Cmax, mean ± SD
readout kind: Cmax
Dear colleague, please send the value followed by its unit.

Consider CC(C)(C(=O)N1CCOc2c(C#N)cncc2C1)C(F)F . Its measured Cmax is 229 ng/mL

----------
Experiment: Plasma pharmacokinetics after single and repeated oral doses
Assay type: in vivo, healthy adult participants (human)
Settings: human, plasma, oral, 10 mg, Part 1b single 10 mg fed; read-out: AUC, mean
readout kind: AUC (ng·h/mL)
Return type: number; implicit unit ng·h/mL.

Consider CC(C)(C(=O)N1CCOc2c(C#N)cncc2C1)C(F)F [Compound 1] . Its measured AUC is 1460

----------
Assay: Plasma pharmacokinetics after single and repeated oral doses
Assay type: in vivo, healthy adult participants (human)
Details: human, plasma, oral, 20 mg, 20 mg QD, MAD study; read-out: Mean observed AUC0-24 at steady state
readout kind: AUC(0-t) (µM·h)
Return type: number; implicit unit µM·h.

Consider CC(C)(C(=O)N1CCOc2c(C#N)cncc2C1)C(F)F . Its measured AUC(0-t) is 7.35

----------
Assay: Plasma pharmacokinetics after single and repeated oral doses
Format: in vivo, healthy adult participants (human)
Conditions: human, plasma, oral, 30 mg, Part 1a single 30 mg fasted; read-out: AUClast, mean
readout kind: AUC(0-t) (ng·h/mL)
Return type: number; implicit unit ng·h/mL.

Consider CC(C)(C(=O)N1CCOc2c(C#N)cncc2C1)C(F)F [Compound 1] . Its measured AUC(0-t) is 2540

----------
Test: Plasma pharmacokinetics after single and repeated oral doses
Format: in vivo, healthy adult participants (human)
Conditions: human, plasma, oral, 40 mg, Part 1a single 40 mg fasted; read-out: AUC, mean
readout kind: AUC
Dear colleague, please send the value followed by its unit.

Consider CC(C)(C(=O)N1CCOc2c(C#N)cncc2C1)C(F)F . Its measured AUC is 5460 ng·h/mL

----------
Experiment: Plasma pharmacokinetics after single and repeated oral doses
Type: in vivo, healthy adult participants (human)
Settings: human, plasma, oral, 20 mg, 20 mg BID; read-out: Mean observed Cmax
readout kind: Cmax (nM)
Return type: number; implicit unit nM.

Consider CC(C)(C(=O)N1CCOc2c(C#N)cncc2C1)C(F)F . Its measured Cmax is 1220

----------
Experiment: 6-month rat toxicology study (NOAEL exposure)
Format: in vivo
Settings: rat, in vivo; female rats, end of Week 26, 6-month study
readout kind: Cmax (µM)
Return type: number; implicit unit µM.

Consider CC(C)(C(=O)N1CCOc2c(C#N)cncc2C1)C(F)F . Its measured Cmax is 13.1

----------
Assay: Plasma pharmacokinetics after single and repeated oral doses
Format: in vivo, healthy adult participants (human)
Settings: human, plasma, oral, 10 mg, Part 1a single 10 mg fasted; read-out: AUClast, mean
Procedure: In Part 1a, plasma samples were collected before dosing and at 10 post-dose timepoints on Day 1 (30 minutes, 1 hour, followed by every hour until 6 hours, and then every 2 hours until 12 hours), and single samples on Day 2 (at 24 hours) and Day 3 (at 48 hours). In Part 1b, timepoints included at least pre-dose and at 10 post-dose timepoints, including plasma sampling at the same time of CSF sampling. […]
readout kind: AUC(0-t) (ng·h/mL)
Return type: number; implicit unit ng·h/mL.

Consider CC(C)(C(=O)N1CCOc2c(C#N)cncc2C1)C(F)F [Compound 1] . Its measured AUC(0-t) is 1200

Data provenance is patent US20240100065A1.
